All values here come from patent US10654917B2.

System: in vitro model of the BBB (bEnd3 cells)
Assay: Transmigration of radiolabelled peptides across in vitro BBB model
Assay type: in vitro ADME
Conditions: 99mTc; 0.25 hours
Here the recorded BBB transmigration is given for each entry.
Your answer is read as %, so omit the unit and give the number.

So what's the measured BBB transmigration for this one? KLFMALVAFLRFLT [PepH2]
0.79

// query: KSKAINVLRGFRKEIGRMLNILN [PepH4]
3.30

And then VQQLTKRFSL (Dengue virus 2; /note=“#PepH1”) , what is it?
3.75

Item: AGILKRW (Dengue virus 2; /note=“#PepH3 (PEP+)”)
2.70
